- ASSAYED_SYSTEM: KRas G12D/Q61H double mutant (Homo sapiens (Human), UniProt P01116, G12D/Q61H)
- Sequence (P01116-2 other isoform, or with tags, fused parts or gaps G12D/Q61H): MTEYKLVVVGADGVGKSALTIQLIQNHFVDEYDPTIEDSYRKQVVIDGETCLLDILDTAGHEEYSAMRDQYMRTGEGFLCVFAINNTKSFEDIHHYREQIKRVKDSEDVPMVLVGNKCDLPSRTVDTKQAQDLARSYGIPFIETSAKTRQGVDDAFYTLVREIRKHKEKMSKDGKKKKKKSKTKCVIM
- PROCEDURE_SUMMARY: Ras GTP binding domain inhibition assay (labeled GTP)
- EXPERIMENTAL_CONDITIONS: 20 μM compound; KRas G12D/Q61H double mutant; read-out: % Inhibition at 20 μM of K-Ras mutant and wild-type protein, KRas G12D Q61H
Quick list: inhibition at 20 µM per entry.

Example molecules with recorded inhibition at 20 µM:
COc1ccccc1CN(Cc1cccs1)C(=O)c1ccc(COC(C)C)cc1
25 to 50%
CCOC(=O)c1c(-c2ccc(C)cc2)csc1NC(=O)CN(C)CC(=O)NC1CCC(O)CC1 (stereo not drawn)
25 to 50%
O=C(CN(Cc1csc(COc2ccc(F)cc2)n1)Cc1ccco1)Nc1ccccc1
25 to 50%

IN: Tell me its inhibition at 20 µM given Cc1nc(Cc2nnc(SCc3ccc(-c4ccccc4C#N)cc3)o2)cs1 as the entry.
OUT: 1 to 25%

IN: Tell me measured inhibition at 20 µM for CCOC(=O)c1c(NC(=O)c2c(N)n(CCCOC)c3nc4ccccc4nc23)sc2c1CCCC2 please.
OUT: 1 to 25%

IN: // Input: Cc1cc(C)c2c(N)c(C(=O)OCc3ccc(C(=O)N4CCCC4)cc3)sc2n1 . Output its inhibition at 20 µM only.
OUT: 1 to 25%

---

Each entry below carries its recorded inhibition at 20 µM.
- ASSAYED_SYSTEM: KRas G12D mutant protein (Homo sapiens (Human), UniProt P01116, G12D)
- Sequence (P01116-2 other isoform, or with tags, fused parts or gaps G12D): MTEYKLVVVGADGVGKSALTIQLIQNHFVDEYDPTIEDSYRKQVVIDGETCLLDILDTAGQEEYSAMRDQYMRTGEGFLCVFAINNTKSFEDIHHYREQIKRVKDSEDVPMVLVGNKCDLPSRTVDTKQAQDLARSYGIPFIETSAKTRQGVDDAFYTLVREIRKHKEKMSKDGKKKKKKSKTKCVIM
- PROCEDURE_SUMMARY: Ras GTP binding domain inhibition assay (labeled GTP)
- EXPERIMENTAL_CONDITIONS: at 20 μM; read-out: KRas G12D % Inh.

Solved entries:
O=C(c1csc2c(O)nc(-c3ccccn3)nc12)N1CCNC(c2ccc(O)cc2)C1 (stereo not drawn) [drawing 3697]
51 to 75%
Cn1ccnc1-c1nc(O)c2scc(-c3ccc(C(C)(C)C)cc3)c2n1 [drawing 3937]
1 to 25%
CCOCCOc1nc(-c2nccn2C)nc2sc(-c3ccccc3)c(-c3ccccc3)c12 [drawing 3890]
1 to 25%

IN: Tell us which inhibition at 20 µM value is on record for Cn1ccnc1-c1nc(O)c2scc(-c3cccc(OC(F)(F)F)c3)c2n1 [drawing 3921]
OUT: 51 to 75%

IN: Using known records, supply inhibition at 20 µM for Cn1ccnc1-c1nc(NCCOC2CC2)c2c(-c3ccccc3)c(-c3ccccc3)sc2n1 [drawing 3894]
OUT: 1 to 25%

IN: Please give the documented inhibition at 20 µM of COCCNc1nc(-c2ccccn2)nc2c1c(-c1ccccc1)nn2-c1ccccn1 [drawing 3856]
OUT: 51 to 75%

IN: Tell us which inhibition at 20 µM value is on record for Oc1nc(-c2ccncn2)nc2c(-c3cccc(C(F)(F)F)c3)csc12 [drawing 3925]
OUT: 1 to 25%

IN: Query inhibition at 20 µM for Oc1nc(-c2ccccn2)nc2c1c(-c1ccccc1)nn2-c1ccccn1 [drawing 3857]
OUT: 51 to 75%

IN: Could you please provide reported inhibition at 20 µM for O=C(c1csc2c(O)nc(-c3ccccn3)nc12)N1CCNC(c2cn[nH]c2)C1 (stereo not drawn) [drawing 3730] ? Thanks!
OUT: 25 to 50%

IN: Tell me its inhibition at 20 µM given Cc1sc2c(O)nc(-c3nccn3C)nc2c1-c1cccc(C(F)(F)F)c1 [drawing 3917] as the entry.
OUT: 1 to 25%

IN: Provide inhibition at 20 µM value for the following compound: COCCNc1nc(-c2ccncn2)nc2sc(-c3ccccc3)c(-c3ccccc3)c12 [drawing 3892]
OUT: 0%

IN: Let me know recorded inhibition at 20 µM for COc1ccnc(-c2nc(O)c3c(Cl)csc3n2)c1 [drawing 3689] , thanks.
OUT: 51 to 75%

IN: Let me know recorded inhibition at 20 µM for Oc1nc(-c2ccccn2)nc2sccc12 [drawing 3624] , thanks.
OUT: 25 to 50%

IN: Quick one: give measured inhibition at 20 µM for COc1nc(-c2cn(C)cn2)nc2sc(-c3ccncc3)c(-c3ccccc3)c12 [drawing 3849]
OUT: 25 to 50%

IN: Identify measured inhibition at 20 µM associated with O=C(c1csc2c(O)nc(-c3ccccn3)nc12)N1CC2CC1CN2c1ccccc1 (stereo not drawn) [drawing 3710]
OUT: 51 to 75%

IN: Using the record for Cn1ccnc1-c1nc(NCCOC(F)(F)F)c2c(-c3ccccc3)c(-c3ccccc3)sc2n1 [drawing 3886] , state its measured inhibition at 20 µM.
OUT: 25 to 50%

IN: Respond only with inhibition at 20 µM recorded for Oc1nc(-c2ccccn2)nc2c(-c3ccccc3Cl)csc12 [drawing 3626]
OUT: 25 to 50%

IN: Tell me its inhibition at 20 µM given COCCNc1nc(-c2nccn2C)nc2sc(C3CCOCC3)c(-c3ccccc3)c12 [drawing 3908] as the entry.
OUT: 51 to 75%

---

We begin with a simple list: items and their reported inhibition at 30 µM.
- System: TNFα production in RAW 264.7 macrophage cell line
- PROCEDURE_SUMMARY: Mouse TNF alpha quantification assay (LPS-stimulated macrophages, ELISA)
- Assay type: cell-based
- EXPERIMENTAL_CONDITIONS: RAW264.7, RAW 264.7 murine leukemia virus transformed macrophage cell lines, LPS stimulation, read-out: TNF-α % Inhibition at 30 μM

O=C(c1csc2c(O)nc(-c3ccccn3)nc12)N1CCc2ccccc2CC1 [drawing 2116]
0%
Oc1nc(-c2ccccn2)nc2c(-c3ccc(F)cc3F)csc12 [drawing 2263]
26 to 50%
c1ccc(-c2csc3nc(-c4ccccn4)nc(N4CCN(CC5CCCO5)CC4)c23)cc1 (centres unmarked) [drawing 2140]
26 to 50%
COc1cccc(CC(=O)Nc2nnc(-c3ccccn3)[nH]2)c1 [drawing 1933]
1 to 25%
O=C(c1csc2c(O)nc(-c3ccccn3)nc12)N1CCNC(c2ccc(Cl)cc2)C1 (centres unmarked) [drawing 2352]
1 to 25%
CCN(CC)CCOc1nc(-c2nccn2C)nc2sc(-c3ccccc3)c(-c3ccccc3)c12 [drawing 2400]
76 to 100%
O=C(Cn1cnc2ccccc2c1=O)Nc1nc(-c2ccccn2)cs1 [drawing 2015]
1 to 25%

IN: Give inhibition at 30 µM for this entry on TNFα production in RAW 264.7 macrophage cell line: O=C(NCCc1ccc(O)c(O)c1)c1csc2nc(-c3ccccn3)nc(N3CCOCC3)c12 [drawing 2204]
OUT: 0%

---

- ASSAYED_SYSTEM: KRas G12D/Q61H double mutant (Homo sapiens (Human), UniProt P01116, G12D/Q61H)
- PROCEDURE_SUMMARY: Ras GTP binding domain inhibition assay (labeled GTP)
- EXPERIMENTAL_CONDITIONS: 20 μM compound; read-out: % Inhibition at 20 μM KRas G12D Q61H
Reported inhibition at 20 µM values for the following compounds.

Please review the entries below; each comes with its answer.
OCCCSCCNc1nc(-c2ccccn2)nc2c1CCC2
1 to 25%
O=C(c1csc2c(O)nc(-c3ccccn3)nc12)N1CCOC(c2ccccc2)C1 (stereo not drawn) [drawing 2766]
1 to 25%
O=c1[nH]c(-c2cnccn2)nc2ccccc12
1 to 25%
Cc1nc(C2CCCN2c2nccc(C(F)(F)F)n2)no1 (stereo not drawn)
25 to 50%
O=S(=O)(c1ccccc1)N(CCOc1cccc(Cl)c1)c1nccs1
25 to 50%

IN: // Input: Oc1nc(-c2ccccn2)nc2c(-c3ccc4c(c3)OCO4)csc12 [drawing 2879] . Output its inhibition at 20 µM only.
OUT: 51 to 75%

IN: Provide inhibition at 20 µM value for the following compound: COc1cccc(C2CN(C(=O)c3csc4c(O)nc(-c5ccccn5)nc34)CCN2)c1 (stereo not drawn) [drawing 2773]
OUT: 25 to 50%

IN: Note inhibition at 20 µM for the compound shown: COc1cc(C)ccc1OS(=O)(=O)N1CCc2ccccc2C1
OUT: 1 to 25%

IN: Determine its reported inhibition at 20 µM: NC(=O)c1cc(N2CCN(c3cccc(C(F)(F)F)c3)CC2)nc2ccccc12
OUT: 25 to 50%

IN: Provide one value: measured inhibition at 20 µM of CN(C(=O)c1ccc(COc2ccccc2F)o1)c1nccs1
OUT: 25 to 50%

IN: Indicate the recorded inhibition at 20 µM value for this compound: O=C(Nc1nnc(-c2ccccn2)[nH]1)C1CC(c2ccccc2)C1 (stereo not drawn)
OUT: 25 to 50%

IN: Retrieve inhibition at 20 µM measured for CN(Cc1ccco1)C(=O)c1ccc(COc2ccccc2)o1 and print it.
OUT: 1 to 25%

IN: Complete the entry with inhibition at 20 µM for COc1ccccc1C1CN(C(=O)c2csc3c(O)nc(-c4ccccn4)nc23)CCN1 (stereo not drawn) [drawing 2772]
OUT: 25 to 50%

IN: Return inhibition at 20 µM (reported value) for this compound: O=C(c1csc2c(O)nc(-c3ccccn3)nc12)N1CCc2ccccc2CC1 [drawing 2690]
OUT: 25 to 50%

IN: Complete the entry with inhibition at 20 µM for Cc1ccc(C)c(OCc2nnc(SCC(C)C(=O)c3ccc(F)c(F)c3)o2)c1 (stereo not drawn)
OUT: 25 to 50%

IN: Tell us which inhibition at 20 µM value is on record for O=C(NCCc1ccc(O)c(O)c1)c1csc2nc(-c3ccccn3)nc(N3CCOCC3)c12 [drawing 2785]
OUT: 0%

IN: Tell me inhibition at 20 µM reported for Nc1nc(O)c2scc(C(=O)N3CCN(c4ccccc4)CC3)c2n1
OUT: 25 to 50%

IN: Supply reported inhibition at 20 µM belonging to this compound: CC(Nc1nc(-c2ccccn2)nc2c1CCC2)c1ccncc1 (stereo not drawn)
OUT: 25 to 50%

IN: In one line, give reported inhibition at 20 µM of the entry Cc1cnc(-c2ccccn2)nc1NC(=O)C(C)c1ccc(C#N)cc1 (stereo not drawn) [drawing 2797] .
OUT: 1 to 25%

IN: Provide measured inhibition at 20 µM value, entry: COc1ccnc(-c2nc(O)c3c(C#N)csc3n2)c1 [drawing 2782]
OUT: 0%

IN: Input CCCCN(C(=O)c1cnn(-c2ccccc2)n1)c1ccccc1 , output reported inhibition at 20 µM.
OUT: 25 to 50%
